B1: C2CD2L (parent)
chain: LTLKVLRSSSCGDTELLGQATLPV

- Variants of: B1
- testSummary: protein stability index of a GFP-peptide fusion (GPS, HEK-293T) (PSI 1-6); higher = more stable;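 also: lentivirally expressed fusions sorted by FACS into six bins by GFP to DsRed ratio, PSI derived from sequencing read proportions per bin multiplied by bin number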
- runParameters: c terminus: a fixed tail appended
Hi there, I'd appreciate the recorded protein stability index for every entry that follows.
Number, no unit, nothing else.

Given "T14D" , state its recorded protein stability index. 2.2

Requested read-out: protein stability index. Entry: "C11H" 1.63

Quick one: protein stability index of "R7K" ? 3.05

Form field: reported protein stability index of "L17N" 3.12

Field request: protein stability index | item: "K4G" 2.46

# query: protein stability index of entry "L17K" 2.05

Which protein stability index is listed for "T14P" ? 2.74

Look up protein stability index: "L3K" 3.07

// returns reported protein stability index for input "L6D" 2.47

Item "C11Y" has what recorded protein stability index? 3.16

Recorded protein stability index of "T14R" , please. 2.06

What does the record list as protein stability index for "D13C" ? 3.28

Quick one: protein stability index for "A20G" ? 1.03

Find the recorded protein stability index belonging to "S10F" and report it. 2.93

Suppose we examine the variant "S9Q" ; what protein stability index value has been reported? 1.43

For the variant shown here, "L17P" , give the reported protein stability index. 2.15

Could you share which protein stability index value was measured for "D13F" ? 3.62

# input variant: "D13Q" ; wanted: its protein stability index 2.24

For the variant shown here, "S9E" , give the reported protein stability index. 1.1

Quick one: protein stability index for "L6E" ? 2.49

What value of measured protein stability index is listed for "T2I" ? 2.9

What value of protein stability index has been recorded for this entry: "L1N" 2.97

Given the entry "C11S" , report its measured protein stability index. 3.41

So what's the measured protein stability index for this one? "L16Q" 1.78

Please look up its protein stability index: "G18L" 3.01

Field request: protein stability index | item: "L1E" 2.76

Using the record for "V24F" , report its protein stability index. 2.7

Looking for the measured protein stability index of "S9R" , can you help? 3.44

Find the recorded protein stability index belonging to "S10V" and report it. 3.73

State the recorded protein stability index for this entry: "T21L" 2.39

Which measured protein stability index value corresponds to "S8R" ? 3.03

Item "L17G" has what recorded protein stability index? 1.86

# query: protein stability index of entry "P23G" 4.54

Reported protein stability index, variant "Q19S" : ____ 2.79

Please look up its protein stability index: "A20D" 1.45

What value of protein stability index has been reported for the following variant? "Q19H" 2.94

# get_value(readout='protein stability index', item= "L6K" ) 2.17

// returns reported protein stability index for input "V24T" 1.81

Could you tell me which protein stability index is on file for "T21N" ? 2.36

Given the entry "G18E" , report its measured protein stability index. 2.26

Sample "L3R" — what was its protein stability index? 2.63

Value lookup for protein stability index; key = "E15A" 3.85

If you can, please state the reported protein stability index value of "L3N" . 3.56

Which protein stability index reading was recorded for the variant "S9V" ? 1.09

If you can, please state the reported protein stability index value of "S9K" . 1.4

For the variant "L22M" , what protein stability index is on record? 1.56

Param item = "L3H" ; retrieve measured protein stability index. 2.51

Which value of protein stability index has been reported for "L1R" in the records? 2.29

Need protein stability index of "V24M" , thanks. 4.58

Can you share its protein stability index? I mean this variant: "D13Y" 2.16

Requested field: protein stability index. Item: "L3G" 2.16

// query protein stability index value for entry "G12A" 1.66

Name the reported protein stability index value associated with the variant "S9P" 1.71

// lookup protein stability index for "G18N" 2.11

protein stability index for "L1W" ? 2.67

Need protein stability index, item "R7N" 1.19

# lookup: protein stability index of "Q19M" 3.83

Dear colleague, I am looking for the recorded protein stability index of the following variant: "L22R" 1.6

Value lookup for protein stability index; key = "V5Y" 2.69

GET /values?readout=protein stability index&item= "V24K" 1.85

What does the record list as protein stability index for "L1D" ? 3.35

// query protein stability index value for entry "G18M" 2.32

Consider the variant shown here: "L16I" What is its recorded protein stability index? 2.19

Form field: reported protein stability index of "V24R" 3.59

protein stability index lookup needed for "L1K" , thanks. 1.99

Quick one: protein stability index for "L6R" ? 2.03

Data request, read-out protein stability index, for "V5E" 2.82

Which measured protein stability index value corresponds to "L3I" ? 4.28

Reported protein stability index for "K4N" : what is it? 1.19

# lookup: protein stability index of "V24P" 2.41

For the variant shown here, "K4V" , give the reported protein stability index. 2.8

Please look up its protein stability index: "V5Q" 2.3

protein stability index lookup needed for "S9L" , thanks. 1.16

Look up protein stability index for this variant: "S9I" 2.11

Recorded protein stability index for "L3C" , please? 1.68

Quick check: protein stability index of "L16V" ? 4.08

Using the record for "L22I" , report its protein stability index. 2.36

What does the record list as protein stability index for "C11N" ? 2.04

Fill in: protein stability index of "G18C" is ___ 2.07

Can you share its protein stability index? I mean this variant: "R7C" 3.71

Please report the recorded protein stability index for "Q19P" . 2.06

What value of protein stability index has been recorded for this entry: "C11M" 2.48

Data request, read-out protein stability index, for "R7S" 1.13

// protein stability index lookup, key: "R7Q" 1.33

What measured protein stability index goes with "G18T" ? 1.18

Please report the recorded protein stability index for "S9W" . 3.38

Given the variant "T14A" , what is its reported protein stability index? 3.11

Which protein stability index value is on record for "V24H" ? 1.37

// query protein stability index value for entry "L16T" 2.01

Look up protein stability index for this variant: "G18A" 1.97

What does the record list as protein stability index for "L22E" ? 1.74
